The reported measurements were obtained from ChEMBL document CHEMBL1201862.

System: SK-MEL-5
method-notes: NCI tumour cell line growth inhibition, 48 h
The source made the active and inactive calls. No stated cut-off is given here; in the data, active = GI50 up to about 1.1 µM and inactive = higher. Residues, ends and D or L forms follow the SMILES beside them. *: point of attachment. Ethyl(2-NMe3+) = C[N+](C)(C)CC*; Boc = CC(C)(C)OC(=O)*
Outcome codes: active, inactive

molecule: FC(F)(F)c1n[nH]c(SCc2ccc(Cl)cc2)n1
experimental-system: SK-MEL-5
assigned-category: inactive
--
molecule: O=C(CCN1CCCCC1CCO)Nc1ccc2c(c1)C(=O)c1ccc(NC(=O)CCN3CCCCC3CCO)cc1C2=O (configuration not stated)
experimental-system: SK-MEL-5
assigned-category: inactive
--
molecule: C=C(C)C(CC=C(C)C)Cc1c(O)cc(OC)c2c1OC(c1ccc(O)cc1O)C(O)C2=O (configuration not stated)
experimental-system: SK-MEL-5
assigned-category: inactive
--
molecule: Cc1ccc(S(=O)(=O)N/C(=N\O)Nc2ccc(Cl)c(Cl)c2)cc1
experimental-system: SK-MEL-5
assigned-category: inactive
--
molecule: COc1cc2c(cc1OC)C(Cc1cc(Br)c(OC)c(OC)c1)=[N+](C)CC2
experimental-system: SK-MEL-5
assigned-category: inactive
--
molecule: C=C1C(=O)OC2CC(=C)C3CC=C(C)C3CC12 (configuration not stated)
experimental-system: SK-MEL-5
assigned-category: inactive
--
molecule: ClC(Cl)(Cl)C1=N[C@H]2[C@H](Br)[C@@H]3O[C@@H](c4ccccc4)[C@H](c4ccccc4)O[C@@H]3[C@H]2O1
experimental-system: SK-MEL-5
assigned-category: inactive
--
molecule: O=C(NC(Cc1ccc(I)cc1)C(=O)O)c1ccc(Cl)cc1 (configuration not stated)
experimental-system: SK-MEL-5
assigned-category: inactive
--
molecule: Cc1cc(O)cc2oc(=O)c3c(O)cc(O)cc3c12
experimental-system: SK-MEL-5
assigned-category: inactive
--
molecule: COc1cc(C2S/C(=C/c3ccccc3)C(=O)N2c2ccc([N+](=O)[O-])cc2)cc(OC)c1OC (configuration not stated)
experimental-system: SK-MEL-5
assigned-category: inactive
--
molecule: [O-][Cl+3]([O-])([O-])[O-].c1ccc(C[P+]2(c3ccccc3)CCCCC2)cc1
experimental-system: SK-MEL-5
assigned-category: inactive
--
molecule: CC1(C)OC2COC3([C@@H]4OC(C)(C)O[C@@H]4CO)OC(C)(C)OC3C2O1 (some centres not stated)
experimental-system: SK-MEL-5
assigned-category: inactive
--
molecule: C/C=C(/C)C(=O)O[C@H]1CCN2CC=C(COC(=O)[C@@](O)([C@H](C)OC)C(C)(C)O)[C@H]12
experimental-system: SK-MEL-5
assigned-category: inactive
--
molecule: ClC(Cl)(Cl)C1CCOC1n1nc2ccccc2n1 (configuration not stated)
experimental-system: SK-MEL-5
assigned-category: inactive
--
molecule: COc1ccc(NCn2nc(CCCCCCCCc3nn(CNc4ccc(OC)cc4)c(=S)o3)oc2=S)cc1
experimental-system: SK-MEL-5
assigned-category: inactive
--
molecule: Cc1cc(O)nc(/N=C(\N)Nc2ccc(Cl)cc2)n1
experimental-system: SK-MEL-5
assigned-category: inactive
--
molecule: CC(C)c1c2[nH]c3ccccc3c2c(C(C)C)c2[nH]c3ccccc3c12
experimental-system: SK-MEL-5
assigned-category: inactive
--
molecule: CCC(C)CNC1=C(NC(C)=O)C(=O)c2ccccc2C1=O (configuration not stated)
experimental-system: SK-MEL-5
assigned-category: inactive
--
molecule: CN(C)CC1CCC/C(=C\c2ccc(Cl)cc2)C1=O (configuration not stated)
experimental-system: SK-MEL-5
assigned-category: inactive
--
molecule: CC[C@@]1(O)C[C@H](OC2CC(N(C)C)C(O)C(C)O2)c2c(cc3c(c2O)C(=O)c2c(O)ccc(O)c2C3=O)[C@H]1C(=O)OC (some centres not stated)
experimental-system: SK-MEL-5
assigned-category: active
--
molecule: COc1cc2nc(NCCCCCNC(=O)c3ccco3)nc(N)c2cc1OC
experimental-system: SK-MEL-5
assigned-category: inactive
--
molecule: CC(NC(=O)C(Cc1ccc(OCC[N+](C)(C)C)cc1)NC(=O)OC(C)(C)C)C(=O)NC(Cc1ccccc1)C(=O)NCC(N)=O (configuration not stated) (Boc-Y(Ethyl(2-NMe3+))AFG-NH2; configuration not given here)
experimental-system: SK-MEL-5
assigned-category: inactive
--
molecule: CC(=O)Nc1ccc2nc(-c3cccc(Cl)c3)cc(O)c2c1
experimental-system: SK-MEL-5
assigned-category: inactive
--
molecule: O=S(=O)(/N=C(\NO)Nc1ccc(Cl)cc1)C1CC=C(c2ccon2)S1 (configuration not stated)
experimental-system: SK-MEL-5
assigned-category: inactive
--
molecule: CCCc1[nH]nc(C(N)=O)c1/N=N/N(C)C
experimental-system: SK-MEL-5
assigned-category: inactive
--
molecule: COc1cc(Nc2cnc3ccc(N)cc3n2)cc(OC)c1OC
experimental-system: SK-MEL-5
assigned-category: inactive
--
molecule: N#CCCN(CCC#N)c1ccc(/C=C2\N=C(COc3ccc(Cl)cc3Cl)OC2=O)cc1
experimental-system: SK-MEL-5
assigned-category: inactive
--
molecule: O=C1OC(c2ccccc2)N(C(=O)c2ccccc2)C1Cc1ccc(OCc2ccccc2)cc1 (configuration not stated)
experimental-system: SK-MEL-5
assigned-category: inactive
--
molecule: CCCOc1ccc(/C=C/C2=[N+](CCO)CCO2)cc1
experimental-system: SK-MEL-5
assigned-category: inactive
--
molecule: CC(NC1CCCC[C@H]1O)c1ccccc1 (some centres not stated)
experimental-system: SK-MEL-5
assigned-category: inactive
--
molecule: Cc1ccc(NC(=O)c2cc3cc(/N=N/c4ccccc4C(=O)O)ccc3oc2=O)cc1
experimental-system: SK-MEL-5
assigned-category: inactive
--
molecule: O=[As](O)(O)c1ccc2nc3cc([As](=O)(O)O)ccc3nc2c1
experimental-system: SK-MEL-5
assigned-category: inactive
--
molecule: c1ccc2c(c1)c1c3c(c4c(n32)=NCCN4)CCC1
experimental-system: SK-MEL-5
assigned-category: inactive
--
molecule: Nc1cc(N2CCCC2)nc(=O)n1Cc1ccccc1
experimental-system: SK-MEL-5
assigned-category: inactive
--
molecule: C(=C\c1ccccc1)/C=N/c1nc2cc3sc(/N=C/C=C/c4ccccc4)nc3cc2s1
experimental-system: SK-MEL-5
assigned-category: inactive
--
molecule: CCN1c2ccccc2NC(=S)c2c(-c3ccccc3)n[nH]c21
experimental-system: SK-MEL-5
assigned-category: inactive
--
molecule: Cc1cccc(NC(=O)CC2C(=O)Nc3ccccc3S2(=O)=O)c1C (configuration not stated)
experimental-system: SK-MEL-5
assigned-category: inactive
